Reported remaining activity at 2500 µM values are given for each entry in this list.
- subject_of_test: E. coli DdlB enzyme (D-alanine:D-alanine ligase) (Escherichia coli)
- Construct: made in house; host or cells: E. coli
- protocol_description: biochemical
- measurement_context: residual activity of DdlB; fragment library screening; tested concentration 2.5 mM; read-out: DdlB RA
experimental_endpoint: remaining activity at 2500 µM (%)

molecule	result_value
Nc1cccc(O)c1 [FLD085]	100
N#Cc1cncc(Br)c1 [FLD123]	97
O=C(O)CCc1cccnc1 [FLD141]	95
CNC(C)C(O)c1ccccc1 (stereo not shown) [FLD102]	97
O=C1N[C@@H](c2ccccc2)CO1 [FLD127]	99
CNc1ccccc1N [FLD179]	84
Cc1cc(C(=O)O)n(C)n1 [FLD094]	96

----------
Reported remaining activity at 1700 µM values are given for each entry in this list.
- subject_of_test: E. coli DdlB enzyme (D-alanine:D-alanine ligase) (Escherichia coli, UniProt P07862)
- Construct: made in house; host or cells: E. coli
- protocol_description: biochemical
- measurement_context: residual activity; tested concentration 1.7 mM; read-out: DdlB RA
experimental_endpoint: remaining activity at 1700 µM (%)

molecule	subject_of_test	result_unit	result_value
CCN1CCN(c2ccc(NC(C)=O)c(C(=O)O)c2)CC1	E. coli DdlB enzyme (D-alanine:D-alanine ligase) (Escherichia coli, UniProt P07862)	%	94
COCCn1nc(-c2cocn2)c2c1CCN(C(C)C)C2	E. coli DdlB enzyme (D-alanine:D-alanine ligase) (Escherichia coli, UniProt P07862)	%	92
O=C1CC(c2cccc(O)c2)c2snc(C(=O)O)c2N1 (stereo not shown)	E. coli DdlB enzyme (D-alanine:D-alanine ligase) (Escherichia coli, UniProt P07862)	%	114
CC1c2cccn2CCN1C(=O)Nc1ccccc1Cl (stereo not shown)	E. coli DdlB enzyme (D-alanine:D-alanine ligase) (Escherichia coli, UniProt P07862)	%	112
CC(C)(C)OC(=O)NCc1cccc(-c2cncs2)c1	E. coli DdlB enzyme (D-alanine:D-alanine ligase) (Escherichia coli, UniProt P07862)	%	69
CCc1ccc(C(=O)N2CCC(C3CCNC3)CC2)cc1 (stereo not shown)	E. coli DdlB enzyme (D-alanine:D-alanine ligase) (Escherichia coli, UniProt P07862)	%	69
Oc1cccc2ccc(/C=C/c3ccc4c(c3)OCO4)nc12	E. coli DdlB enzyme (D-alanine:D-alanine ligase) (Escherichia coli, UniProt P07862)	%	139
CCc1nnc(C2CCCN(C(=O)C3CCCCC3)C2)[nH]1 (stereo not shown)	E. coli DdlB enzyme (D-alanine:D-alanine ligase) (Escherichia coli, UniProt P07862)	%	71
Cc1cc(C2CCCN2C(=O)c2ccc(F)c(F)c2)on1 (stereo not shown)	E. coli DdlB enzyme (D-alanine:D-alanine ligase) (Escherichia coli, UniProt P07862)	%	98
O=C(O)c1cc(S(=O)(=O)N2CCOCC2)ccc1O	E. coli DdlB enzyme (D-alanine:D-alanine ligase) (Escherichia coli, UniProt P07862)	%	92
Cc1ccc(CNC(=O)C2Cn3cccc3C(=O)N2C)o1 (stereo not shown)	E. coli DdlB enzyme (D-alanine:D-alanine ligase) (Escherichia coli, UniProt P07862)	%	92
O=C(C1CC1)N1CC(c2n[nH]c(C3CC3)n2)C2(CCC2)C1 (stereo not shown)	E. coli DdlB enzyme (D-alanine:D-alanine ligase) (Escherichia coli, UniProt P07862)	%	95
O=C(N/N=C/c1ccc2cccc(O)c2n1)c1ccccc1	E. coli DdlB enzyme (D-alanine:D-alanine ligase) (Escherichia coli, UniProt P07862)	%	49
O=C(Nc1ccccc1F)NC1COc2ccccc2C1 (stereo not shown)	E. coli DdlB enzyme (D-alanine:D-alanine ligase) (Escherichia coli, UniProt P07862)	%	93
CC1CCN(C(=O)CC2(n3cccc3)CCCCC2)CC1	E. coli DdlB enzyme (D-alanine:D-alanine ligase) (Escherichia coli, UniProt P07862)	%	90
Cc1ccccc1NS(=O)(=O)c1c[nH]c2ncccc12	E. coli DdlB enzyme (D-alanine:D-alanine ligase) (Escherichia coli, UniProt P07862)	%	89
O=C(Cc1nc(-c2ccccn2)n[nH]1)NCC1CCCO1 (stereo not shown) [Compound 8020-1329F]	E. coli DdlB enzyme (D-alanine:D-alanine ligase) (Escherichia coli, UniProt P07862)	%	104
O=C(Cc1n[nH]c(-c2cccnc2)n1)NCC1CCCO1 (stereo not shown)	E. coli DdlB enzyme (D-alanine:D-alanine ligase) (Escherichia coli, UniProt P07862)	%	94
O=C(O)c1ccn(COc2ccc(Cl)cc2Cl)n1	E. coli DdlB enzyme (D-alanine:D-alanine ligase) (Escherichia coli, UniProt P07862)	%	96

----------
- subject_of_test: E. coli DdlB enzyme (D-alanine:D-alanine ligase) (Escherichia coli)
- Construct: made in house; host or cells: E. coli
- protocol_description: biochemical
- measurement_context: tested concentration 2.5 mM; read-out: DdlB RA
- Method: The fragment library was assayed in a DdlB inhibition assay, where fragments were tested for their ability to inhibit the D-Ala-adding activity of DdlB ligase. The orthophosphate formed during the enzymatic reaction was measured spectrophotometrically using malachite green reagent. A recombinant E. coli DdlB enzyme (D-alanine:D-alanine ligase) was expressed in E. coli[11]. […] The final DMSO concentration was 5%. […] All experiments were performed in duplicates. […]

item_smiles	result_unit	remaining activity at 2500 µM
O=C(O)CCNc1nc(F)cc(F)n1	%	93
Nc1n[nH]c(-c2ccccc2C(=O)O)n1	%	98
Cc1c(N)c(=O)n(-c2ccccc2)n1C	%	95

----------
- subject_of_test: E. coli DdlB enzyme (D-alanine:D-alanine ligase) (Escherichia coli)
- Construct: made in house; host or cells: E. coli
- protocol_description: biochemical
- measurement_context: at 5 mM; read-out: DdlB inhibition, RA (Residual Activity)
Lab note - cut at 50% for remaining activity at 5000 µM: Y if strictly below, N if not.

item_smiles	group
O=C(O)c1cc2nccc(-c3cccs3)n2n1	N
CCOc1ccc2c(n1)CCN(C(=O)c1ccccn1)C2	Y
O=C(O)c1cnn2c(-c3ccccc3)ccnc12	N
COCc1cn(C2CNC2)nn1	N
O=C(O)c1cnn2c(-c3ccc(Cl)cc3)ccnc12	Y
Cc1nn(C)cc1-c1ccnc2c(C(=O)O)cnn12	Y
Nc1ccc2ncc(C(=O)O)c(O)c2c1	Y

----------
- subject_of_test: E. coli DdlB enzyme (D-alanine:D-alanine ligase) (Escherichia coli, UniProt P07862)
- Construct: made in house; host or cells: E. coli
- protocol_description: biochemical
- measurement_context: residual activity of DdlB; fragment library screening; tested concentration 2.5 mM; read-out: DdlB RA

compound	remaining activity at 2500 µM [%]
COc1cnc(N)nc1 [FLD089]	100
N#CCc1ccc(C(F)(F)F)cc1 [FLD116]	94
OCCc1ccc(Cl)cc1 [FLD160]	92
COc1ccc(Br)cc1OC [FLD159]	98
NC(=S)Nc1ccc(F)cc1 [FLD107]	95
CC1=NCCC1 [FLD186]	71
Nc1cccc(N)c1 [FLD111]	92
Nc1cc(O)[nH]n1 [FLD042]	100
Nc1ccc(Cl)nn1 [FLD052]	96
COc1cc(O)cc(OC)c1OC [FLD027]	98
Cc1nc2ccccc2nc1O [FLD171]	95
NC(=O)NC(=O)Cc1ccccc1 [FLD017]	100
O=C1CNC(=S)N1 [FLD022]	98
Cc1cc(=O)n(-c2ccccc2)n1C [FLD081]	100
Cc1nc(-c2ccc(C(=O)O)cc2)cs1 [FLD018]	99
COC(=O)c1cscc1N [FLD143]	92
CCOC(=O)Nc1ccccc1 [FLD098]	96
CCOC(=O)c1[nH]cnc1C [FLD106]	100
O=C(O)c1ccc(CN2CCCCC2)cc1 [FLD056]	100
N#Cc1ccc(N2CCCNCC2)nc1 [FLD124]	62
O=C1COc2cc(O)ccc21 [FLD029]	100
Nn1cnnc1 [FLD138]	96
Nc1nnc(C2CC2)s1 [FLD126]	80
NS(=O)(=O)c1ccc(Cl)s1 [FLD067]	100
N#CCc1ccsc1 [FLD183]	100
CCNCc1ccncc1 [FLD193]	91
Nc1cccc2ncccc12 [FLD054]	94
Cc1nc(C(=O)O)cs1 [FLD100]	93
Nc1ccc(-c2ccc(N)cc2)cc1 [FLD069]	70
Nc1cccc(CC(=O)O)c1 [FLD131]	97

----------
- subject_of_test: E. coli DdlB enzyme (D-alanine:D-alanine ligase) (Escherichia coli)
- Construct: made in house; host or cells: E. coli
- protocol_description: biochemical
- measurement_context: tested concentration 2.3 mM; read-out: DdlB RA
experimental_endpoint: remaining activity at 2300 µM (%)

molecule	experimental_endpoint	result_value
Cn1c(=O)cnc2ccc(N3CCCCCC3)nc21	remaining activity at 2300 µM	83
CC(=O)Nc1ccc2c(C)cc(C)nc2n1	remaining activity at 2300 µM	97
CC(C)(C)NS(=O)(=O)Cc1ccc(Cl)cc1	remaining activity at 2300 µM	91
COC(=O)c1nnn(-c2ccccc2)c1O	remaining activity at 2300 µM	104
CCCn1c(C)cnc1C1CCNC1 (stereo not drawn)	remaining activity at 2300 µM	86
O=C(NC1CC(=O)N(c2cccc(F)c2)C1)C1CC1 (stereo not drawn)	remaining activity at 2300 µM	91
Cc1cc(C)c(S(N)(=O)=O)c(Cl)n1	remaining activity at 2300 µM	78
Cc1cc(O)n(C2CCS(=O)(=O)C2)n1 (stereo not drawn)	remaining activity at 2300 µM	99
O=C1C(O)CC2c3ccccc3CC3(CCCC3)N12 (stereo not drawn)	remaining activity at 2300 µM	85
CCS(=O)(=O)N1CCCN(C(=O)C2CC2)CC1	remaining activity at 2300 µM	98
Cc1ccc(F)c(-n2cc(C(=O)O)nn2)c1	remaining activity at 2300 µM	100
O=c1[nH]c2ncc(Br)cc2o1	remaining activity at 2300 µM	92
NS(=O)(=O)c1ccc2c(c1)OCCO2	remaining activity at 2300 µM	88
CC(O)C1CCN(Cc2ccncc2)CC1 (stereo not drawn)	remaining activity at 2300 µM	65
Cc1cc2n(n1)CCC(=O)N2CCCC(=O)O	remaining activity at 2300 µM	92
Cc1cc(C)c2c(=O)[nH]n(C3CCCCCC3)c2n1	remaining activity at 2300 µM	81
CC(=O)Nc1ccc(S(N)(=O)=O)cc1	remaining activity at 2300 µM	87
CN(C)CC(=O)Nc1ccc(Cl)cn1	remaining activity at 2300 µM	95
CCS(=O)(=O)N1CCCC1c1ccccc1F (stereo not drawn)	remaining activity at 2300 µM	95
Cc1cc(C2CCCN2Cc2ccccc2O)on1 (stereo not drawn)	remaining activity at 2300 µM	90
O=C(O)CCCC1C(=O)Nc2ccccc21 (stereo not drawn)	remaining activity at 2300 µM	93
Cc1ccc([N+](=O)[O-])cc1S(=O)(=O)O	remaining activity at 2300 µM	93
O=C(O)CCc1nnc2ccccn2c1=O	remaining activity at 2300 µM	102
COc1ccc2ncc(C(=O)O)c(O)c2c1	remaining activity at 2300 µM	66
Cc1cccc(CS(=O)(=O)N2CCCC2)c1	remaining activity at 2300 µM	98
O=C(O)c1cnc(-c2ccc(F)cc2)nc1	remaining activity at 2300 µM	81
CCOc1ccc(S(N)(=O)=O)cc1C	remaining activity at 2300 µM	79
CCn1c(C(=O)NC(C)C)cc2occc21	remaining activity at 2300 µM	96
CC(=O)c1cnc2c(C(=O)O)cnn2c1C	remaining activity at 2300 µM	104
Cc1ccc(C(C)C)cc1S(=O)(=O)O	remaining activity at 2300 µM	91
N#Cc1cnn2c1NC(C1CC1)CC2C(F)(F)F (stereo not drawn)	remaining activity at 2300 µM	83
c1ccc2c(c1)N(CN1CCCC1)CC21OCCO1	remaining activity at 2300 µM	94
COc1ncccc1S(=O)(=O)N1CCCCC1	remaining activity at 2300 µM	100
O=c1c(O)c(NCCc2ccccc2)c1=O	remaining activity at 2300 µM	92
O=c1c(N2CCCC2)c(N2CCCC2)c1=O	remaining activity at 2300 µM	98
OC1CCCc2[nH]nc(-c3ccccc3)c21 (stereo not drawn)	remaining activity at 2300 µM	96
